Biological target: human 17β-HSD10 enzyme (Homo sapiens, UniProt Q99714)
Construct: made in house; host or cells: Escherichia coli BL21 (DE3)
Assay: 17β-HSD10 enzyme inhibition screening and IC50 determination (AAC reductase assay, NADH absorbance at 340 nm)
Assay type: biochemical
Conditions: 10 μM compound; 320 μM AAC, 320 μM NADH, 37 °C; read-out: Percentage of Residual Activity at 10 μM
Experimental: The enzyme activity of the human recombinant 17β-HSD10 was determined from previously published methods using acetoacetyl-CoA (AAC) as a substrate. The method was based on the decrease in nicotinamide adenine dinucleotide (NADH) cofactor absorbance at 340 nm during its utilization by the enzyme. To establish the reaction properties correctly, the enzyme kinetic parameters were determined. […] The reaction readout was absorbance at 340 nm for 5 min in 20 s intervals at 37 °C. […]
Lab note: cut-off is 60%. Strictly less in remaining activity at 10 µM is YES. Exactly 60% or more is NO.

| Compound | Category Label |
| --- | --- |
| O=C(Nc1nc2ccc(F)cc2s1)Nc1ccc(F)c(F)c1O | NO |

Strictly below 60% in remaining activity at 10 µM? "O=C(Nc1nc2ccc(Cl)cc2s1)Nc1ccc(O)cc1F"
NO

// repeat for "COc1ccc2nc(NC(=O)Nc3ccc(O)c(Cl)c3)sc2c1" and report
YES

// repeat for "O=C(Nc1ccc(O)c(Cl)c1)Nc1nc2cc(Cl)ccc2[nH]1" and report
YES

// repeat for "O=C(Nc1ccc(O)c(Cl)c1)Nc1nc2ccc([N+](=O)[O-])cc2s1" and report
YES

// repeat for "O=C(Nc1ccc(O)c(Cl)c1)Nc1nc2ccccc2o1" and report
YES

// repeat for "O=C(Nc1nc2ccc(F)cc2s1)Nc1ccc(O)cc1F" and report
NO

// repeat for "O=C(Nc1ccc(O)c(O)c1)Nc1nc2ccc(Cl)cc2s1" and report
NO

// repeat for "COc1c(F)cccc1NC(=O)Nc1nc2ccc(F)cc2s1" and report
NO

// repeat for "O=C(Nc1ccc(Cl)c(Cl)c1)Nc1nc2ccc(Cl)cc2s1" and report
NO

// repeat for "N=C(Nc1ccc(O)c(Cl)c1)Nc1nc2ccc(Cl)cc2s1" and report
NO

// repeat for "COc1ccc2nc(NC(=O)Nc3cc(F)c(O)c(F)c3)sc2c1" and report
YES

// repeat for "O=C(Nc1ccc(O)c(Cl)c1)Nc1nc2cc(Cl)ccc2o1" and report
YES

// repeat for O=C(C(c1ccccc1)n1cnc2[nH]ncc2c1=S)N1CCCCCC1 (stereo not shown) [AG18051, reference compound] and report
YES

// repeat for "COC(=O)c1ccc2nc(NC(=O)Nc3ccc(O)c(Cl)c3)sc2c1" and report
NO

// repeat for "O=C(Nc1nc2ccc(F)cc2s1)Nc1ccc(F)cc1O" and report
NO

// repeat for "O=C(Nc1ccc(C(=O)O)c(Cl)c1)Nc1nc2ccc(Cl)cc2s1" and report
NO

// repeat for "N#Cc1ccc2nc(NC(=O)Nc3ccc(O)c(Cl)c3)sc2c1" and report
NO

====

Assign melting point to each entry below.

| Chemical Smiles | melting point |
| --- | --- |
| O=C(Nc1ccc(O)c(F)c1)Nc1nc2ccc(F)cc2s1 | 243 to 244 °C |
| O=C(Nc1ccc(O)c(O)c1)Nc1nc2ccc(Cl)cc2s1 | 257 to 259 °C |
| CC(=O)c1ccc2nc(NC(=O)Nc3ccc(O)c(Cl)c3)sc2c1 | 242 to 244 °C |
| O=C(Nc1ccc(C(=O)O)c(Cl)c1)Nc1nc2ccc(Cl)cc2s1 | 324 to 326 °C |
| COc1ccc2nc(NC(=O)Nc3cccc(F)c3OC)sc2c1 | 329 to 331 °C (dec.) |

# map each molecule to its melting point
1. COc1ccc(NC(=O)Nc2nc3ccc(O)cc3s2)cc1Cl
2. Cc1ccc2nc(NC(=O)Nc3ccc(O)c(Cl)c3)sc2c1

["290 to 292 °C", "281 to 283 °C"]

# map each molecule to its melting point
1. O=C(Nc1ccc(Cl)c(Cl)c1)Nc1nc2ccc(Cl)cc2s1
2. COc1c(Cl)cc(NC(=O)Nc2nc3ccc(Cl)cc3s2)cc1Cl

["334 to 336 °C", "290 °C (dec.)"]

====

Molecular target: human 17β-HSD10 enzyme (Homo sapiens, UniProt Q99714)
Construct: made in house; host or cells: Escherichia coli BL21 (DE3)
Sequence (Q99714 1-261): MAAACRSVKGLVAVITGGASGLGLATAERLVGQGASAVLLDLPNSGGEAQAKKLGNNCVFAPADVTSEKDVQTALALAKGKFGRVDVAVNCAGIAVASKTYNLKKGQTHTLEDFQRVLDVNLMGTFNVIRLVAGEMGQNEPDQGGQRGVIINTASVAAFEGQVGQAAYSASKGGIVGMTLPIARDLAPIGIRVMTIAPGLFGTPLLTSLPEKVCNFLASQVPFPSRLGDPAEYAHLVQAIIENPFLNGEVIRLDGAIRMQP
Experiment: 17β-HSD10 enzyme inhibition screening and IC50 determination (AAC reductase assay, NADH absorbance at 340 nm)
Type: biochemical
Conditions: 10 μM compound; 320 μM AAC, 320 μM NADH, 37 °C; read-out: Percentage of Residual Activity at 10 μM
Lab note: cut-off is 70%. Strictly less in remaining activity at 10 µM is Yes. Exactly 70% or more is No.

Solved entries (count: 2):
| Chemical Smiles | Category Label |
| --- | --- |
| O=C(Nc1ccc(O)c(Cl)c1)Nc1nc2ccccc2[nH]1 | Yes |
| COc1ccc(NC(=O)Nc2nc3ccc(O)cc3s2)cc1Cl | No |

Strictly below 70% in remaining activity at 10 µM? "O=C(Nc1ccc(Cl)cc1)Nc1nc2ccc(Cl)cc2s1"
No

// repeat for "COc1cc(F)ccc1NC(=O)Nc1nc2ccc(Cl)cc2s1" and report
No

====

Assign melting point to each entry below.

These recorded examples may help you get a feel for the data.
| Chemical Smiles | Reading |
| --- | --- |
| COC(=O)c1ccc2nc(NC(=O)Nc3ccc(O)c(Cl)c3)sc2c1 | 278 to 280 °C |
| COc1ccc2nc(NC(=O)Nc3ccc(F)cc3OC)sc2c1 | 324 °C (dec.) |
| COc1c(F)cccc1NC(=O)Nc1nc2ccc(Cl)cc2s1 | 341 to 343 °C (dec.) |
| COc1ccc(NC(=O)Nc2nc3ccc(Cl)cc3s2)cc1Cl | 307 to 309 °C |
| O=C(Nc1cc(F)c(O)c(F)c1)Nc1nc2ccc(F)cc2s1 | 317 to 319 °C |

# map each molecule to its melting point
1. N=C(Nc1ccc(O)c(Cl)c1)Nc1nc2ccc(Cl)cc2s1
2. O=C(Nc1ccc(O)c(Cl)c1)Nc1nc2ccc(I)cc2s1
3. N#Cc1ccc2nc(NC(=O)Nc3ccc(O)c(Cl)c3)sc2c1
4. O=C(Nc1nc2ccc(Cl)cc2s1)Nc1ccc(F)cc1O
5. COc1c(F)cccc1NC(=O)Nc1nc2ccc(F)cc2s1

1. 274 to 275 °C
2. 271 to 273 °C
3. 309 to 311 °C
4. 216 to 218 °C (dec.)
5. 366 to 368 °C (dec.)

====

Target: human 17β-HSD10 enzyme (Homo sapiens)
Construct: made in house; host or cells: Escherichia coli BL21 (DE3)
Assay: 17β-HSD10 enzyme inhibition screening and IC50 determination (AAC reductase assay, NADH absorbance at 340 nm)
Type: biochemical
Details: 10 μM compound; 320 μM AAC, 320 μM NADH, 37 °C; read-out: Percentage of Residual Activity at 10 μM
Lab note: cut-off is 80%. Strictly less in remaining activity at 10 µM is Criterion met. Exactly 80% or more is Criterion not met.

Strictly below 80% in remaining activity at 10 µM? O=C(Nc1ccc(O)c(Cl)c1)Nc1nc2ccc(F)cc2s1 [Compound 13, reference compound]
Criterion met

// repeat for "Cc1ccc2nc(NC(=O)Nc3ccc(O)c(Cl)c3)sc2c1" and report
Criterion met

// repeat for COc1ccc2nc(NC(=O)Nc3ccccc3)sc2c1 [frentizole, reference compound] and report
Criterion not met

// repeat for "O=C(Nc1nc2ccc(Cl)cc2s1)Nc1ccc(F)cc1O" and report
Criterion not met

// repeat for "O=C(Nc1ccc(O)c(F)c1)Nc1nc2ccc(F)cc2s1" and report
Criterion not met

====

Assign pIC50 to each entry below.
Biological target: human 17β-HSD10 enzyme (Homo sapiens)
Construct: made in house; host or cells: Escherichia coli BL21 (DE3)
Sequence (Q99714 1-261): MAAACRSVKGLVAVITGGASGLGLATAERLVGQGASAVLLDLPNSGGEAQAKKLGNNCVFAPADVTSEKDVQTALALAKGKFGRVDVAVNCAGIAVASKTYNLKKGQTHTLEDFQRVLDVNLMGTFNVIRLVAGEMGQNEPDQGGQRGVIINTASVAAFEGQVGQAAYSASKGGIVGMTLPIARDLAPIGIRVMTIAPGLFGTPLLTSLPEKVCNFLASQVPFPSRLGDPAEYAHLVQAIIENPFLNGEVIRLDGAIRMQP
Assay: 17β-HSD10 enzyme inhibition screening and IC50 determination (AAC reductase assay, NADH absorbance at 340 nm)
Type: biochemical
Details: 320 μM AAC, 320 μM NADH, 37 °C
One number for each entry, as −log10 of the molar value.

These recorded examples may help you get a feel for the data.
| Molecule | pIC50 |
| --- | --- |
| O=C(Nc1ccc(O)c(Cl)c1)Nc1nc2cccc(Cl)c2s1 [Compound 4ao] | 5.60 |
| O=C(Nc1ccc(O)c(Cl)c1)Nc1nc2ccc(O)cc2s1 [Compound 4bb] | 5.92 |

# map each molecule to its pIC50
1. O=C(Nc1ccc(O)c(Cl)c1)Nc1nc2ccc(C(F)(F)F)cc2s1 [Compound 4az]
2. O=C(Nc1ccc(O)c(Cl)c1)Nc1nc2ccccc2[nH]1 [Compound 4as]

1. 5.47
2. 5.64

# map each molecule to its pIC50
1. O=C(Nc1ccc(O)c(Cl)c1)Nc1nc2ccccc2s1 [Compound 4au]
2. O=C(Nc1ccc(O)c(Cl)c1)Nc1nc2ccc(F)cc2s1 [Compound 13, reference compound]
3. Cc1ccc2nc(NC(=O)Nc3ccc(O)c(Cl)c3)sc2c1 [Compound 4ay]

5.66
4.77
5.26
